- testTarget: And‐1 (Homo sapiens, UniProt O75717)
- Construct: expressed in transfected cells
- Sequence (O75717 whole entry): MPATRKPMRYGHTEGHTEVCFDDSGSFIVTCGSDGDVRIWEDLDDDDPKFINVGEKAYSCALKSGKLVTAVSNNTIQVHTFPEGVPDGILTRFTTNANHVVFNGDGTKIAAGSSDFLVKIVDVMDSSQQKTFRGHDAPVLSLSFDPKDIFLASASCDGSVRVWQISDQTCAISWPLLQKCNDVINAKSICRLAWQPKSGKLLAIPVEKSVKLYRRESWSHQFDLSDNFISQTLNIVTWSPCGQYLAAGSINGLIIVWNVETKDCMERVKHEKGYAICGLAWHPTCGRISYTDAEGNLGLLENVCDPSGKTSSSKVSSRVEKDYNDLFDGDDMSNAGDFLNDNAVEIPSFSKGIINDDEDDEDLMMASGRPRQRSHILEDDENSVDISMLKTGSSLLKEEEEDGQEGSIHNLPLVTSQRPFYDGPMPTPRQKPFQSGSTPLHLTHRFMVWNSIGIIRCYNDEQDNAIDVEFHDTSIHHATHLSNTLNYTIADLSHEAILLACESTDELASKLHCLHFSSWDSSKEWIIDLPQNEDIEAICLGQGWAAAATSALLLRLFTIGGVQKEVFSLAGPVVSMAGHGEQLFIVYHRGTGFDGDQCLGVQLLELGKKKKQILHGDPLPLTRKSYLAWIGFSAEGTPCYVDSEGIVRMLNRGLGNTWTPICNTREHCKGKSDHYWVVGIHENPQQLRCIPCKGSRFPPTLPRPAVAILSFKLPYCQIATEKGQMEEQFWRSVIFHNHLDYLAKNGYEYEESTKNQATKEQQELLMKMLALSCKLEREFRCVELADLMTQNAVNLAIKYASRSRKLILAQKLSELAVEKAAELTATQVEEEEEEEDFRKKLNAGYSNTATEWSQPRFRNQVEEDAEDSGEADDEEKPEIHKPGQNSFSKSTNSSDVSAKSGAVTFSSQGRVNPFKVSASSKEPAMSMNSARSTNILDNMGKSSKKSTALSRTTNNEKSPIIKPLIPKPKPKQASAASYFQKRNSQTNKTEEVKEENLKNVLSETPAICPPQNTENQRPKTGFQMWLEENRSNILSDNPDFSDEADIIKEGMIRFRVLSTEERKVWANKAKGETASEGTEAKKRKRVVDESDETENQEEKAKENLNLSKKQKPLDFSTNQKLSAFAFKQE
- assaySummary: And‐1 luciferase reporter assay (qHTS of LOPAC)
- Format: cell-based
- appliedConditions: reduction of luciferase activity, qHTS; column 1; read-out: IC50 (uM) 1
Where a name gives a salt, the structure may show the parent alone.
assayReadout: log10 of DC50 (log10 of the value in µM)

| compound | recordedMeasurement |
| --- | --- |
| COCCOC(=O)C1=C(C)NC(C)=C(C(=O)OC/C=C/c2ccccc2)C1c1cccc([N+](=O)[O-])c1 (stereo not drawn) | 1.36 |
| CNc1ccc2oc(C[C@H]3O[C@@]4(CC[C@H]3C)O[C@H]([C@H](C)C(=O)c3ccc[nH]3)[C@H](C)C[C@H]4C)nc2c1C(=O)O | 0.79 |
| Oc1ccc(/C=C/c2cc(O)cc(O)c2)cc1 [Resveratrol, 3,5,4′‐trihydroxy‐trans‐stilbene] | 1.17 |
| COc1cc2c(cc1O)CC[C@@H]1[C@@H]2CC[C@]2(C)[C@@H](O)CC[C@@H]12 | 0.22 |
| Nc1ccn([C@@H]2O[C@H](CO)[C@@H](O)C2(F)F)c(=O)n1 [Gemcitabine hydrochloride] | -1.70 |
| C/C=C(/C)C(=O)O[C@H]1C(C)=C2[C@H]([C@@H]1OC(=O)CCCCCCC)[C@@](C)(OC(C)=O)C[C@H](OC(=O)CCC)[C@@]1(O)[C@H]2OC(=O)[C@@]1(C)O | 1.12 |
